B1: OR4K15 (parent)
chain: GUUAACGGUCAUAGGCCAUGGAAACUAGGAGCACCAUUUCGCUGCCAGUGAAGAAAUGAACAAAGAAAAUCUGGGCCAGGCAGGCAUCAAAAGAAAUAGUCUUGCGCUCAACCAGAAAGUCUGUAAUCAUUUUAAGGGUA

variants of: B1; test: self-cleavage, relative activity (ratio to wild type); higher = more cleavage; in vitro, sequencing; the parent is a self-cleaving ribozyme
Property Name: self-cleavage
Numbers only.

>  <Mutant Code>
A47G U72C

>  <self-cleavage>
0.35

$$$$
>  <Mutant Code>
G44A U122C

>  <self-cleavage>
1.67

$$$$
>  <Mutant Code>
U3A U38C

>  <self-cleavage>
1

$$$$
>  <Mutant Code>
A56G C107A

>  <self-cleavage>
0.02

$$$$
>  <Mutant Code>
A68G G73U

>  <self-cleavage>
0.07

$$$$
>  <Mutant Code>
U97A U130C

>  <self-cleavage>
1.59

$$$$
>  <Mutant Code>
A96U U127A

>  <self-cleavage>
2.6

$$$$
>  <Mutant Code>
A98U A118U

>  <self-cleavage>
1.62

$$$$
>  <Mutant Code>
A64G A68G

>  <self-cleavage>
1.54

$$$$
>  <Mutant Code>
U72A A86U

>  <self-cleavage>
0.32

$$$$

State the recorded self-cleavage for every item in the following list.
1. A118U U130C
2. U49C U122A
3. A30G U72A
4. A69G A116G
5. U72A U124A
6. G41A A91G

1. 0.4
2. 1.33
3. 0.36
4. 0.56
5. 0.1
6. 1.55

src = the RNAGym collection of RNA variant scans (doi:10.7554/elife.90254)
